System: NCI-H522 lung
Experiment: NCI tumour cell line growth inhibition, 48 h; in the data active = GI50 below about 0.43 µM; inactive = the rest
Lab note: assign the record to one of 1.0 = active, 0.0 = inactive

Returns: the outcome recorded for N=c1ccn2c(n1)O[C@@H]1[C@@H](O)[C@H](CO)O[C@@H]12 in this assay.
1.0

Another compound to look at: O=C(CN1CCN(c2ccc(Cl)cc2)CC1)N1CCN(c2nnc(-c3ccccc3)c(-c3ccccc3)n2)CC1
0.0

Please answer likewise for CC/C=C\C/C=C\C[C@H]1C/C=C2/C(=O)C=C[C@H]2C/C=C\CCC(=O)O1
0.0

Now consider O=C1c2cccnc2C(=O)c2c1c(C(=O)OCCN1CCOCC1)c1ccccn21 .
1.0

Here is the next compound: Cc1ccc(NC(=O)c2nc(S(C)=O)oc2-c2ccc(F)cc2)cc1Nc1nccc(-c2cccnc2)n1 (centres undefined)
0.0

Others:
Assay outcome for Cc1ccc(S(=O)(=O)n2cc(-c3nnnn3-c3ccc(Cl)cc3)c(=O)c3ccccc32)cc1 : what was it?
0.0

// same read-out, input: COc1ccc(/C=C/C(=O)c2ccc(Nc3ccnc4cc(Cl)ccc34)cc2)cc1
0.0

Here is the next compound: CC[C@@]1(O)C(=O)OCc2c1cc1n(c2=O)Cc2c-1nc1ccccc1c2/C=N/OC(C)(C)C
1.0

Another: Nc1c(C(=O)Nc2ccccc2)sc2nc3c(cc12)CCCC3
0.0

These data points were gathered from PubChem BioAssay (NCI).
